// data source = patent US20240270826A1

List of Kd values.
- ASSAYED SYSTEM: T1, SARS-CoV-2 spike trimer S (Wuhan, SmT1) (SARS-CoV-2 Wuhan)
- T1 construct: extracellular domain
- ASSAY METHOD TEXT: SPR, antigen on chip
Number in nM, nothing else.

Record NRCoV2-MRed06 VHH (VHH) VHH: EVQLVESGGGLVQAGGSLRLSCAASGFTLAYYAIGWFRQAPGKEREGVSCISSSDGSAHYADSVKGRFTISRDNAKNTVSLQMNSLKPEDTAVYYCATDSFSSCSDYESGMDFWGKGTQVTVSS . Reported Kd: 4.8

New cases:
Reported Kd ( NRCoV2-MRed25 VHH (VHH) VHH: EVQLVESGGGLVQAGGSLRLSCAASGHTFSRYGMGWFRQAPGKEREFVAAISWRGDSTYYRDSVNGRFTISRDNAKNTVYLGMNSLKPEDTAVYYCAAEMWGTATIVASRYTYWGQGTQVTVSS ) = 1.02

Sure, the documented Kd for NRCoV2-MRed19 VHH (VHH) VHH: EVQLVESGGGLVQPGGSLRLSCAASTIIFKGQTMGWFRQAPGNERELVATMTTSGSANYADSVKGRFTISRDNEKTVTLQMNSLKPEDTALYYCYMHSVYYGIDYWGKGTQVTVSS is 5.01

Record summary for NRCoV2-MRed03 VHH (VHH) VHH: EVQLVESGGGLVQPGGSLRLSCAAIGFTLDYYAIGWFRQAPGKEREGVSCISSSDGSTYYADSVKGRFTISRDNAKNTVYLQMNSLKPEDTAVYYCATDAFATCDSWYAQIAQYDFRGQGTQVTVSS : reported Kd = 0.52

For record NRCoV2-MRed22 VHH (VHH) VHH: EVQLVESGGGLVQPGGSLRLSCAASGSVFASNAMGWYRQAPGKQRELVATISSRGSTNYADSVKGRFTISRDNAKNTVYLQMNSLGPEDTAVYYCNAREFTGFDYWGQGTQVTVSS the listed Kd is 0.506

Looking up NRCoV2-MRed18 VHH (VHH) VHH: EVQLVESGGGLVQPGGSLRLSCAASTTVFGRNAMGWYRQAPGKERELVATVSDGGTPNYADSVKGRFTISRDNAKNTIYLQMNSLEPEDTAVYYCNYYNYYYGRNFWGQGTQVTVSS , I found its Kd recorded as 7.56

For NRCoV2-MRed20 VHH (VHH) VHH: EVQLVESGGGSVQAGGSLRLSCAASGLSFSSYDMGWFRQAPGKEREFVAAIRESGSGTYYADSVKGRFTISRDNAKNTVYLQVSSLKPEDTAVYTCAAKPPFYGSGTYSTPRAYLYWGQGTQVTVSS the binder record lists Kd as 0.0918

Documented Kd of NRCoV2-MRed11 VHH (VHH) VHH: EVQLVESGGGLVQAGGSLRLSCAASGFTFSSYAMSWHRQAPGKGLEWVSAINSGGGSTSYADSVKGRFAISRDNAKNTLYLQMNSLKPEDTAVYYCATTISDGSSWSTKSYRGQGTQVTVSS : 17.8

Kd measured on NRCoV2-MRed07 VHH (VHH) VHH: EVQLVESGGGLVQPGGSLTLSCAASGSIGPFNTMGWYRQAPGNQREPAAIITRGGVTNYADSVKGRFTISRDNAKNAVYLQMDSLKPDDTAVYYCYANYGWAIPYWGNGTQVTVSS = 0.236

So for NRCoV2-MRed04 VHH (VHH) VHH: EVQLVESGGGLVQPGRSLRLSCAASGNSFSISTMGWFRQAPGKERELVASIWSDTTTSYADSVKGRFTISTDNTRTKVYLQMSSLNPEDTAVYYCAADRGFVVRGQYDYWGQGTQVTVSS , the logged Kd turned out to be 1.09
